Molecular target: Adenosine receptor A1 (Rattus norvegicus, UniProt P25099)
Sequence (P25099 whole entry): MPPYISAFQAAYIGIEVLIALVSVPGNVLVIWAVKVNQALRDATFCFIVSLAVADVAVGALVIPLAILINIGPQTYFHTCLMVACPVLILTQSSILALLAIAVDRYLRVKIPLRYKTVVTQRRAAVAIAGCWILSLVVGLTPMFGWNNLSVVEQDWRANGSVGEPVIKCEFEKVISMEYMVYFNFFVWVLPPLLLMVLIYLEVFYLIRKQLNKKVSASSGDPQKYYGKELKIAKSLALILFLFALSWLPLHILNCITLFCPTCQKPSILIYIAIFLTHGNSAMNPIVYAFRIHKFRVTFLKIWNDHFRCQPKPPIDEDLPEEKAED
Test: Displacement of [3H]DPCPX from rat brain cortical membrane A1AR assessed as GTP shift
test readout: GTP shift

Cc1ccc(C(=O)c2sc(NC(=O)c3ccco3)nc2-c2ccccc2)cc1: 1.3
O=C(Nc1nc(-c2ccccc2)c(C(=O)c2ccc(F)cc2F)s1)c1ccccc1: 0.9
O=C(Nc1nc(-c2ccccc2)c(C(=O)c2ccc(Cl)cc2)s1)c1ccccc1: 1
COc1ccc(C(=O)Nc2nc(-c3ccccc3)c(C(=O)c3ccc(C)cc3)s2)cc1: 1

* * *

Biological target: UniProt:P28647
Sequence (P28647 whole entry): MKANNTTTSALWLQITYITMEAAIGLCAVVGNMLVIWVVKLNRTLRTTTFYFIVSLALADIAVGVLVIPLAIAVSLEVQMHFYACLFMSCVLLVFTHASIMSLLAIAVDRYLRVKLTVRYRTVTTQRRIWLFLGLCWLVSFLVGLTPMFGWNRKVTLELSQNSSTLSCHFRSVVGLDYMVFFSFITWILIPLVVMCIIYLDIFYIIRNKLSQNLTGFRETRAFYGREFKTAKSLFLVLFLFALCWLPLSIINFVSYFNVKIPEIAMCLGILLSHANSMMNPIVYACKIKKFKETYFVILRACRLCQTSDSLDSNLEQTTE
Assay: Antagonist activity at rat A3AR expressed in CHO cells assessed as reduction in NECA-induced inhibition of forskolin-stimulated cAMP accumulation incubated for 2 hrs by fluorescence based assay
test readout: EC50 (nM)
Return type: number; implicit unit nM.

Identify measured EC50 associated with "O=C(Nc1nc(-c2ccccc2)c(-c2nc3ccccc3c(=O)n2-c2ccc(Cl)cc2)s1)c1ccco1"
5.3

* * *

Target: Adenosine receptor A3 (Rattus norvegicus, UniProt P28647)
Assay: Antagonist activity at rat A3AR expressed in CHO cells assessed as reduction in NECA-induced inhibition of forskolin-stimulated cAMP accumulation at 3 uM incubated for 2 hrs by fluorescence based assay
test readout: pEC50
Keep in mind that pEC50 stands for -log10 of concentration in molar terms.

Report measured pEC50 on Adenosine receptor A3 (Rattus norvegicus, UniProt P28647); entry: "O=C(Nc1nc(-c2ccccc2)c(-c2nc3ccccc3c(=O)n2-c2ccc(Cl)cc2)s1)c1ccco1"
7.24

* * *

Target: UniProtKB P28647
Assay: Antagonist activity at rat A3AR expressed in CHO cells assessed as reduction in NECA-induced inhibition of forskolin-stimulated cAMP accumulation at 10 uM incubated for 2 hrs by fluorescence based assay
test readout: pEC50
Keep in mind that pEC50 stands for -log10 of concentration in molar terms.

Identify measured pEC50 associated with "O=C(Nc1nc(-c2ccccc2)c(-c2nc3ccccc3c(=O)n2-c2ccc(Cl)cc2)s1)c1ccco1"
5.76
